Each entry below carries its recorded melting point.

# compound, melting point
rows = [
    ("CC1(CS(=O)(=O)c2ccccc2)COC2(OO1)C1CC3CC(C1)CC2C3 (centres unmarked)", "126 to 127 °C"),
    ("CC1(CS(=O)(=O)c2ccccc2)COC2(CCC(C(C)(C)C)CC2)OO1 (centres unmarked)", "154 °C"),
    ("CC1(CS(=O)(=O)c2ccccc2)COC2(CCC(=O)CC2)OO1 (centres unmarked)", "96 °C"),
    ("CC1(CS(=O)(=O)c2ccc(Cl)cc2)COC2(CCCCC2)OO1 (centres unmarked)", "86 to 87 °C"),
    ("CC1(CSc2ccc(Cl)cc2)COC2(CCCC2)OO1 (centres unmarked)", "69.8 to 70 °C"),
    ("CC1(CS(=O)(=O)c2ccccc2)COC2(CCCCC2)OO1 (centres unmarked)", "88 to 89 °C"),
    ("CC1(CSc2ccc(Cl)cc2)COC2(CCCCCCCCCCC2)OO1 (centres unmarked)", "93 to 94 °C"),
    ("CC1(CSc2ccccc2)COC2(CCCCC2)OO1 (centres unmarked)", "45 to 46 °C"),
    ("CC1(CS(=O)(=O)c2ccccc2)COC2(CCCCCCCCCCC2)OO1 (centres unmarked)", "123 to 124 °C"),
    ("CC1(CS(=O)(=O)c2ccccc2)COC2(CCC2)OO1 (centres unmarked)", "96 to 97 °C"),
    ("CC1(CSc2ccccc2)COC2(CCCCCCCCCCC2)OO1 (centres unmarked)", "89 °C"),
]

Values were extracted from patent US20050256184A1.
